Reference source for all entries: PubChem BioAssay (NCI)

# Tested on: ACHN renal
# Assay explanation: NCI tumour cell line growth inhibition, 48 h
Readout type: TGI

Below, 3 molecules whose answers are already recorded.
# Molecule, Assay target, Endpoint result
records = [
    ("COc1cc2c(c(OC)c1OC)-c1ccc(N)c(=O)cc1[C@@H](NC(C)=O)CC2", "ACHN renal", "> 100 µM"),
    ("CCOC(=O)c1c(CN2CCNCC2)nc2ccccc2c1-c1ccccc1", "ACHN renal", "30.4 µM"),
    ("CC1CCP(=O)(c2ccccc2)c2ccccc21 (centres undefined)", "ACHN renal", "> 100 µM"),
]

TGI of CC(=O)O[C@@H]1C[C@@]23C[C@@]24CC[C@H](OC2OCC(O)C(O)C2O)C(C)(C)[C@@H]4CC=C3[C@]2(C)C[C@@H]3OC4(C[C@@H](C)[C@@H]3[C@@]12C)OC(O)[C@@]1(C)O[C@@H]41 (some centres undefined) on ACHN renal?
> 100 µM

TGI of CCCCc1c2c(nc3c1CCc1cc4cc5c(nc4nc1-3)-c1nc3c(c(CCCC)c1CC5)CCCC3)CCCC2 on ACHN renal?
> 100 µM

TGI of CCc1n(Cc2ccc3ccccc3n2)cc[n+]1Cc1ccc2ccccc2n1 on ACHN renal?
> 100 µM

TGI of O=C(/C=C/C12c3ccccc3C(c3ccccc31)C1C(=O)N(c3ccccc3)C(=O)C12)c1ccccc1 (centres undefined) on ACHN renal?
4.08 µM

TGI of CC(=O)Nc1ccc(C(=O)NN2C(=O)C(Cl)C2c2ccc([N+](=O)[O-])cc2)cc1 (centres undefined) on ACHN renal?
> 100 µM

TGI of O=C1C=C(NCCNC(=S)Nc2ccccc2)c2nccc3c2c1nc1ccccc13 on ACHN renal?
> 100 µM

---

# Tested on: MDA-MB-231 breast
# Assay explanation: NCI tumour cell line growth inhibition, 48 h
Recorded measurements of log10 TGI, one per entry
Could you please treat all values as log10 of TGI in µM?

Below, 2 compounds whose answers are already recorded.
# Compound, log10 TGI
data = [
    ("CN1CCN(c2c(Cl)cc(Cl)c3[nH]c4ccccc4c(=O)c23)CC1", 1.46),
    ("O=C1c2ccc([N+](=O)[O-])cc2-c2c1c1ccccc1c(=O)n2CCCNCCCNCCCn1c2c(c3ccc([N+](=O)[O-])cc3c1=O)C(=O)c1ccccc1-2", 0.45),
]

Here is the next item to consider.
Consider the compound Clc1ccc(Cc2nc3ccccc3nc2-c2cccc(Br)c2)cc1 and give its measured log10 TGI.
1.15

---

# Tested on: EKVX NSCLC
# Assay explanation: NCI tumour cell line growth inhibition, 48 h; in the data active = GI50 below about 0.43 µM; inactive = the rest
Hi there, use one of these labels in your reply, thanks! active, inactive

Could you kindly confirm the outcome this assay logged for Clc1ccc(N2N=C(c3cccc(Nc4ccncc4)c3)CC2c2ccc3c(c2)OCO3)cc1 (stereo not drawn) ?
inactive

Could you kindly confirm the outcome this assay logged for CCCC(=O)Nc1cc(C(=O)N2C[C@@H]3C[C@]34C2=CC(=O)c2[nH]cc(C)c24)n(COC)c1 ?
inactive

---

# System: SF-268 CNS
# Assay explanation: NCI tumour cell line growth inhibition, 48 h
Recorded measurements of GI50, one per entry

Below, 4 compounds whose answers are already recorded.
# Compound, GI50
rows = [
    ("COc1ccc(Nc2ncc(Br)c(NCCCNC(=O)C3CCC3)n2)cc1", "4.78 µM"),
    ("Clc1ccc(N2N=C(c3cccc(Nc4ccncc4)c3)CC2c2ccc3c(c2)OCO3)cc1 (stereo not given)", "1.63 µM"),
    ("COc1ccc2c(c1)/C(=C\\c1cccnc1)C(=O)N2", "12.9 µM"),
    ("O=[N+]([O-])c1ccc(S(=O)Cc2ccccc2)c([N+](=O)[O-])c1 (stereo not given)", "13.4 µM"),
]

Here is the next item to consider.
GI50 of CCCCCCCNc1nc(C(=O)OCC)ncc1-c1ccc(C(F)(F)F)cc1 on SF-268 CNS?
48.2 µM

---

Recorded measurements of GI50, one per entry
# System: SK-MEL-28 melanoma
# Assay explanation: NCI tumour cell line growth inhibition, 48 h

Below, 2 compounds whose answers are already recorded.
# Compound, GI50
rows = [
    ("O=C1c2ccc([N+](=O)[O-])cc2-c2c1c1ccccc1c(=O)n2CCCNCCCNCCCn1c2c(c3ccc([N+](=O)[O-])cc3c1=O)C(=O)c1ccccc1-2", "3.83 µM"),
    ("CC1(C)CC[C@H](Nc2ncc(C(F)(F)F)c(-c3c[nH]c4c(P(C)(C)=O)c(C#N)ccc34)n2)CN1", "< 0.01 µM"),
]

Consider the compound COc1cc2c(c(OC)c1OC)-c1ccc(N)c(=O)cc1[C@@H](NC(C)=O)CC2 and give its measured GI50.
> 100 µM

Consider the compound O=C(Nc1ccc(F)cc1)c1ccc(NC2=C(Cl)C(=O)N(Cc3ccccc3)C2=O)cc1 and give its measured GI50.
16.5 µM

Consider the compound COc1ccc(N2Cc3cnc(Nc4ccccc4)nc3N([C@@H]3CC[C@@H](O)C3)C2=O)cc1 and give its measured GI50.
8.19 µM

Consider the compound Cc1ccc(/C(=N\N=C(N)N)c2ccccc2)cc1 and give its measured GI50.
0.535 µM

---

Recorded measurements of TGI, one per entry
# Test system: NCI-H522 lung
# Assay explanation: NCI tumour cell line growth inhibition, 48 h

Below, 4 compounds whose answers are already recorded.
# Compound, Endpoint result
records = [
    ("CSC(CC(=O)O)C(=O)O (stereo unspecified)", "> 100 µM"),
    ("Cc1ccc(S(=O)(=O)NNC(=O)c2cc(C)ccc2NC(=O)C23CC4CC(CC(C4)C2)C3)cc1", "76.3 µM"),
    ("C=CCN(/C=C1/C(=O)O[C@H](COC)[C@@]2(C)C1=C(O)C(=O)C1=C2[C@H](OC(C)=O)C[C@]2(C)C(=O)CC[C@@H]12)CC=C", "> 10 µM"),
    ("Cc1cc(O)c(C(C)C)cc1SC#N", "24.9 µM"),
]

Consider the compound COc1ccc(N(C)C(=O)N(C)c2ccc([N+](=O)[O-])cc2)cc1 and give its measured TGI.
> 100 µM

Consider the compound COC[C@@H](N=CN1CCc2cc(OC)c(OC)cc2[C@@H]1C)C(C)(C)C and give its measured TGI.
> 100 µM

Consider the compound O=C1CCC2(CCO1)OCCO2 and give its measured TGI.
> 100 µM

Consider the compound CCc1cccc(C(C)C)c1NC(=O)C(=O)CC(=O)c1c(C)n([O-])c2ccccc2[n+]1=O and give its measured TGI.
> 100 µM

Consider the compound C/C=C\C(CC(=O)NCCc1cn(C(=O)OCc2ccccc2)c2ccccc12)CC(=O)OC (stereo unspecified) and give its measured TGI.
> 100 µM

Consider the compound OCC1OC(n2cnc3cncnc32)C(O)C1O (stereo unspecified) and give its measured TGI.
5.42 µM

Consider the compound COc1cc(CCN)c2c(c1OC)SSSSS2 and give its measured TGI.
0.849 µM

---

# Tested on: SK-MEL-2 melanoma
# Assay explanation: NCI tumour cell line growth inhibition, 48 h
// label = true if TGI is not less than 7 µM, otherwise false

A selection of reference data follows.
# Molecule, Assay target, Category label
records = [
    ("CN(C)c1nc(N(C)C)nc(N(C)C23CC4CC(CC(C4)C2)C3)n1", "SK-MEL-2 melanoma", "true"),
    ("CCOC(=O)C1=C(c2ccccc2)N(C)c2ccccc2S1", "SK-MEL-2 melanoma", "true"),
    ("Cc1ccc(C(=O)N/N=C(\\N=Nc2cccc(Cl)c2)c2ccc(N(CCC#N)CCC#N)cc2C)cc1", "SK-MEL-2 melanoma", "true"),
]

Quick check: does CC[C@@]1(O)C[C@H](OC2CC(N(C)C)C(OC3CC(O)C(OC4CCC(=O)C(C)O4)C(C)O3)C(C)O2)c2c(cc3c(c2O)C(=O)c2c(O)cccc2C3=O)[C@H]1C(=O)OC (some centres undefined) have TGI greater than or equal to 7 µM?
false

Quick check: does CC1(C)OCC(C(O)C2OC(C)(C)OC2C=O)O1 (centres undefined) have TGI greater than or equal to 7 µM?
true

Quick check: does Cc1nc2c3c(ncn2n1)Oc1c(c(-c2ccccc2)nn1-c1ccccc1)C3c1ccc(Cl)cc1 (centres undefined) have TGI greater than or equal to 7 µM?
true

Quick check: does CC1OC2=N[C@@H]1C(=O)N[C@@H](C(C)C)C1=N[C@H](C(=O)N[C@@H](C(C)C)C3=N[C@H](C(=O)N[C@@H](C(C)C)C4=N[C@H](C(=O)N[C@H]2C(C)C)C(C)O4)C(C)O3)C(C)O1 (some centres undefined) have TGI greater than or equal to 7 µM?
true

Quick check: does C/C(=C\c1ccccn1)c1ccccn1 have TGI greater than or equal to 7 µM?
true

Quick check: does Nc1nc(-c2ccccc2N=NN2CCCC2)nc2ccccc12 have TGI greater than or equal to 7 µM?
true

Quick check: does O=C(c1ccccc1)C1CCCCN1C(=O)c1ccccc1 (centres undefined) have TGI greater than or equal to 7 µM?
true

Quick check: does O=C1C=CC(=O)C(CNc2ccc(C(=O)OC34CC5CC(CC(C5)C3)C4)cc2)=C1 have TGI greater than or equal to 7 µM?
true

Quick check: does CSC(CC(=O)O)C(=O)O (centres undefined) have TGI greater than or equal to 7 µM?
true

Quick check: does CC(C)CNCC(O)COc1ccc(C(C)(C)c2ccc(OCC(O)CNCC(C)C)cc2)cc1 (centres undefined) have TGI greater than or equal to 7 µM?
false

Quick check: does COc1cc(/C=C/C(=O)c2c(=O)o[nH][n+]2-c2ccccc2)ccc1[O-] have TGI greater than or equal to 7 µM?
false

Quick check: does Nc1cccc2c1C(=O)c1cccc(N)c1C2=O have TGI greater than or equal to 7 µM?
true

Quick check: does O=[N+]([O-])c1c(Br)cc(Br)c2c1Nc1c(ccc(Cl)c1Cl)S2 have TGI greater than or equal to 7 µM?
true

Quick check: does O=C(/C=C/C12c3ccccc3C(c3ccccc31)C1C(=O)N(c3ccccc3)C(=O)C12)c1ccccc1 (centres undefined) have TGI greater than or equal to 7 µM?
true

Quick check: does COc1ccc(-c2nc3sc(-c4ccc(Cl)cc4)cn3n2)cc1 have TGI greater than or equal to 7 µM?
true
